- Test system: NCI/ADR-RES ovarian
- Assay Summary: NCI-60 one-dose screen, 48 h (100 = growth as untreated, 0 = no growth, -100 = all killed)
- Applied Conditions: 10 µM unless noted
- Experimental: Growth inhibition of the NCI/ADR-RES human […] tumor cell line is measured as a screen for anti-cancer activity. Cells are grown in 96 well plates and exposed to the test compound for 48 hours. Compounds are tested at a single concentration, which is 10^-5 M for most compounds. The reported endpoint is percent growth (GI% or GIPRCNT), where numbers from 0 - 100% represent growth inhibition, and numbers from -100% - 0 represent cell death. For example, a value of 40 represents 60% growth inhibition. […]
Compounds without any hit were thinned out: in the full panel of roughly 83,000, 20% have a hit.
Assay Endpoint: growth (%)
Report as a plain number; the unit % is understood.

Tested on NCI/ADR-RES ovarian, the item CC(=O)OC(C(=O)c1ccccc1)c1ccccc1 (stereo not given) showed growth equal to 107

Tested on NCI/ADR-RES ovarian, the item COc1cc2c(cc1O)c(=O)n(CCN(C)C)c1c3cc4c(cc3ncc21)OCO4 showed growth equal to -12.6

Tested on NCI/ADR-RES ovarian, the item CS(=O)(=O)N1CCN(Cc2cc3nc(-c4cccc5[nH]ncc45)nc(N4CCOCC4)c3s2)CC1 showed growth equal to 32.1

Tested on NCI/ADR-RES ovarian, the item c1ccc2c(c1)CCN(NCCN1CCCC1)C2 showed growth equal to 96.1

Tested on NCI/ADR-RES ovarian, the item COc1cc(OC)c(C(=O)/C=C/c2cc3c(cc2OCc2ccccc2)OC(C)(C)CC3)cc1CC=C(C)C showed growth equal to 51.9

The measurements presented in this section are drawn from PubChem BioAssay (NCI).
